System: Plasmodium falciparum W2 strain (chloroquine resistant)
PROCEDURE TEXT: In vitro screening against Plasmodium falciparum, 3H-hypoxanthine incorporation, W2 strain
Type: cell-based
CONDITION SET: 66 hours incubation
VALUE KIND: In vitro activity: IC90 (ng/mL)
Respond numerically; units are ng/mL and should not be typed.

Q. Consider the molecule COc1cc(OC)c(C2OC3OC4(C)CCC5C(C)CCC(C2C)C35OO4)c(OC)c1 (stereo not shown) [Example 44] and give its recorded In vitro activity: IC90.
A. 0.8168

Q. Consider the molecule COc1ccc(C2O[C@@H]3O[C@@]4(C)CC[C@H]5[C@H](C)CC[C@@H]([C@H]2C)[C@@]35OO4)c(OC)c1 (stereo partly shown) [Example 4] and give its recorded In vitro activity: IC90.
A. 1.74

Q. Consider the molecule CC1CCC2C(C)C(c3ccccc3)OC3OC4(C)CCC1C32OO4 (stereo not shown) [Example 2] and give its recorded In vitro activity: IC90.
A. 0.52

Q. Consider the molecule CC1CCC2C(C)C(Nc3ccc(-c4ccccc4)cc3)OC3OC4(C)CCC1C32OO4 (stereo not shown) [Example 20] and give its recorded In vitro activity: IC90.
A. 12.77

Q. Consider the molecule COc1cc(OC)c(C2OC3OC4(C)CCC5C(C)CCC(C2C)C35OO4)c(OC)c1 (mixture of isomers) [Example 12] and give its recorded In vitro activity: IC90.
A. 1.32

Q. Consider the molecule CC1CCC2C(C)C(N3CCOCC3)OC3OC4(C)CCC1C32OO4 (stereo not shown) [Example 25] and give its recorded In vitro activity: IC90.
A. 0.17

Q. Consider the molecule CC1CCC2C(C)C(F)OC3OC4(C)CCC1C32OO4 (stereo not shown) [Example 1] and give its recorded In vitro activity: IC90.
A. 0.98

Q. Consider the molecule CC1CCC2C(C)C(c3ccc(Br)cc3)OC3OC4(C)CCC1C32OO4 (stereo not shown) [Example 38] and give its recorded In vitro activity: IC90.
A. 2.76

Q. Consider the molecule CC1CCC2C(C)C(Nc3ccc(I)cc3)OC3OC4(C)CCC1C32OO4 (stereo not shown) [Example 19] and give its recorded In vitro activity: IC90.
A. 0.43

Q. Consider the molecule CCCNC1OC2OC3(C)CCC4C(C)CCC(C1C)C24OO3 (stereo not shown) [Example 24] and give its recorded In vitro activity: IC90.
A. 1.30

Q. Consider the molecule CC1CCC2C(C)C(Nc3ccc(F)cc3)OC3OC4(C)CCC1C32OO4 (stereo not shown) [Example 16] and give its recorded In vitro activity: IC90.
A. 0.84

Q. Consider the molecule CC1CCC2C(C)C(Nc3ccccc3)OC3OC4(C)CCC1C32OO4 (stereo not shown) [Example 15] and give its recorded In vitro activity: IC90.
A. 0.84

Q. Consider the molecule CC1CCC2C(C)C(Nc3ccc(Br)cc3)OC3OC4(C)CCC1C32OO4 (stereo not shown) [Example 18] and give its recorded In vitro activity: IC90.
A. 0.33

###

Tested on: Plasmodium falciparum D6 strain (chloroquine sensitive)
PROCEDURE TEXT: In vitro screening against Plasmodium falciparum, 3H-hypoxanthine incorporation, D6 strain
Format: cell-based
CONDITION SET: 66 hours incubation
For each record, write down the corresponding In vitro activity: IC90.
Respond numerically; units are ng/mL and should not be typed.

Q. Consider the compound CCN(CC)C1OC2OC3(C)CCC4C(C)CCC(C1C)C24OO3 (stereo not shown) and give its recorded In vitro activity: IC90.
A. 16.24

Q. Consider the compound CC(NC1OC2OC3(C)CCC4C(C)CCC(C1C)C24OO3)c1ccccc1 (stereo not shown) and give its recorded In vitro activity: IC90.
A. 18.61

Q. Consider the compound CC1CCC2C(C)C(c3ccccc3)OC3OC4(C)CCC1C32OO4 (stereo not shown) and give its recorded In vitro activity: IC90.
A. 0.99

Q. Consider the compound CC1CCC2C(C)C(NCc3ccccc3)OC3OC4(C)CCC1C32OO4 (stereo not shown) and give its recorded In vitro activity: IC90.
A. 3.96

Q. Consider the compound CC1CCC2C(C)C(Nc3ccc(F)cc3)OC3OC4(C)CCC1C32OO4 (stereo not shown) and give its recorded In vitro activity: IC90.
A. 0.78

Q. Consider the compound CC1CCC2C(C)C(F)OC3OC4(C)CCC1C32OO4 (stereo not shown) and give its recorded In vitro activity: IC90.
A. 1.36

Q. Consider the compound CCCNC1OC2OC3(C)CCC4C(C)CCC(C1C)C24OO3 (stereo not shown) and give its recorded In vitro activity: IC90.
A. 2.10
